EXPERIMENTAL DETAILS: Efflux ratio of apparent permeability from basolateral to apical side over apical to basolateral side in human Caco-2 cells at 100 uM and measured after 120 mins by LC-MS analysis
Format: ADME, cell-based
RECORDED METRIC: efflux ratio at 2 h, 100 µM
Give bare numbers.

SUBSTANCE SMILES | efflux ratio at 2 h, 100 µM
C=C[C@]1(C)C[C@@H](OC(=O)CS[C@@H]2CC[C@@H](N)C[C@H]2O)[C@]2(C)[C@H](C)CC[C@]3(CCC(=O)[C@H]32)[C@@H](C)[C@@H]1O | 40.8

Lab note: next compound to report on.
Recorded result, "C=C[C@]1(C)C[C@@H](OC(=O)Cn2cc(-c3ccc(Cn4cnc5c(N6CCNCC6)ncnc54)nc3)nn2)[C@]2(C)[C@H](C)CC[C@]3(CCC(=O)[C@H]32)[C@@H](C)[C@@H]1O" , efflux ratio at 2 h, 100 µM: 48

Value source: ChEMBL document CHEMBL5518206
